Hello, the source for this data is patent US20070249599A1, in case you need it.

Biological target: hYAK3 (Homo sapiens)
Construct: GST (N); His6 (C)
Sequence (O43781 124-526): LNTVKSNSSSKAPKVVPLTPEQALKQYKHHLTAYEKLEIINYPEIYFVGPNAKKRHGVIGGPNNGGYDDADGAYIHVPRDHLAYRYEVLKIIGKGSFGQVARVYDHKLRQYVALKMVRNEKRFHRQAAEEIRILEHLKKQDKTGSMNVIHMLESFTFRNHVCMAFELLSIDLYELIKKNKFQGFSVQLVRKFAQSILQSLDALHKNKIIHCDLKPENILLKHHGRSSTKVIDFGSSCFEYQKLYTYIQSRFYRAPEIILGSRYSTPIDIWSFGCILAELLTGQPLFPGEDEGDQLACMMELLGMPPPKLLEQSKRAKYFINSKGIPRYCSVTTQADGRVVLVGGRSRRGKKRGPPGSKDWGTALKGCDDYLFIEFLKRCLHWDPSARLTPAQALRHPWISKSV
Assay: YAK3 Scintillation Proximity Assay using Ser164 of myelin basic protein as the phosphoacceptor (kinase assay of purified hYAK3)
Details: purified GST-hYak3-His6 (aa 124-526), 4 nM; 0.001 mM ATP; 4 μM Ser164 peptide; 2 hours at room temperature; pIC50 = −log10(IC50)
I'd be grateful if you could share measured IC50 for these entries.

Lookup: Give IC50 for this entry on hYAK3 (Homo sapiens): `Cn1c(C(C)(C)C)nc2ccc(/C=C3\SC(Nc4ccccc4Cl)=NC3=O)cc21`
Found: 102 to 1000 nM

Lookup: Give IC50 for this entry on hYAK3 (Homo sapiens): `CN(C)CCn1nnc2ccc(/C=C3\SC(Nc4c(Cl)cccc4Cl)=NC3=O)cc21`
Found: 10.2 to 100 nM

Lookup: Give IC50 for this entry on hYAK3 (Homo sapiens): `Cc1nc2ccc(C=C3SC(=Nc4c(Cl)cccc4Cl)NC3=O)cc2o1`
Found: 1.02 to 10 nM
